Target: T1, human 5T4-His protein (human, UniProt Q13641 32-355)
T1 construct: also called recombinant 5T4 protein (human 5T4-his tag); human 5T4 protein; not shown: His tag
T1 sequence (looked up): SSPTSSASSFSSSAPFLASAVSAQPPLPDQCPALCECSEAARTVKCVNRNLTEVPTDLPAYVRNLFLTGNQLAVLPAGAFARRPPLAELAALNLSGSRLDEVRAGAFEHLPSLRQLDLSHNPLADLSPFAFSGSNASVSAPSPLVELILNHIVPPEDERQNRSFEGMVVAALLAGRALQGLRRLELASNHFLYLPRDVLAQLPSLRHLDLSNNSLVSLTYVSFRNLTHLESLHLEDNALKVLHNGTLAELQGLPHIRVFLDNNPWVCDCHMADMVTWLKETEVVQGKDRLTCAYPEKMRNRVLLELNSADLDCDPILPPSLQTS
Assay: ELISA, coated antigen
property_name: pEC50
Please report pEC50 as the negative decimal logarithm of the molar concentration, giving only the number.

Problem: Please look at this binder and report its pEC50: 37G6 chimeric antibody (antibody, V domains shown) VH: QVQLQQPGAELVKPGASVKMSCKASGYTFTSYWITWVKQRPGQGLERIGDIYPGSGTINYNEKFKSKATLTVDTSSSTAYMQLSSLTSEDSAVYCCARSDGNYYFDYWGQGTTLKVSS VL: QIVLSQSPAILSASPGEKVTMTCRASSSVNYMHWYQQKPGSSPKPWIYATSNLASGVPVRFSGSGSGTSYSLTISRVEAEDAATYYCQQWSSNPPTFGGGTKLEIK
Result: 9.89

Problem: For the binder 353H11 chimeric antibody (antibody, V domains shown, chimeric mAb) VH: QVQLQQPGTELVKPGASVKLSCKASDYTFTSYWMHWVKQRPEQGLEWIGNINPSNGNTNYNEKFKNKATLTVDKSSSTAYMQLSSLTFEDSAVYYCARGGWDFDYWGQGTTLTVSS VL: QVVLTQSPAIMSASPGEKVTMTCSASSSVRYMHWYQQRSGTSPKRWIYDTSKLTSGVPARFSGSGSGTSYSLTISSMEAEDAATYYCQLWTSKPPWTFGGGTKLEIR , give its reported pEC50.
Result: 9.14

Problem: Look up and state reported pEC50 for 393E9 chimeric antibody (antibody, V domains shown, chimeric mAb) VH: EVKLVESGGGLVQPGGSLSLSCAASGFTFTDYYMSWVRQPPGKALEWLGFIRNKGNGYTTENSASVKGRFTISRDNSQSILYLQMNALRAEDSATYYCARYRGNPHYAMDYWGQGTSVTVSS VL: DIVLTQFPASLAVSLGQRATISCRASESVEFYGTSFLQWYQQKPGQPPKLLIYGASNVESGVPARFSGSGSGTDFSLSIHPVEEDDIAMYFCQQSRKVPSTFGGGTKLEIK
Result: 9.43
